- measurementDescription: qHTS Assay for Inhibitors of Hepatitis C Virus (HCV)
- conditionParameters: Huh7.5.1 HCVcc-Cre infection, luciferase reporter, 44 h; series mostly up to 41.8 µM
About 12,000 (3.5%) of roughly 340,000 compounds were called active. Inconclusive results (about 18%) are left out. The call rests on the fitted dose curve; in most records, active means well fitted inhibition curve with a large enough effect; inconclusive means small, poorly fitted or top-dose-only effect, or another doubt; inactive means no such curve, though single readings can be large or run the other way. The sample holds actives, similar compounds and a random draw of the others, so the mix is not that of the screen.
Labels: active, inactive

{"columns": ["molecule", "labelValue"],
 "data": [
  ["O=C(NCC1(N2CCCCC2)CCCCC1)c1cccc(S(=O)(=O)Nc2ccccc2Cl)c1", "inactive"],
  ["Cn1c(SCC(=O)N2CCCc3ccccc32)nc2ccccc2c1=O", "active"],
  ["CC(Sc1ccccc1F)C(=O)Nc1cccc(S(=O)(=O)N2CCOCC2)c1 (stereo not given)", "inactive"],
  ["O=C(NNC(=O)c1cc(-c2ccccc2Cl)nc2ccccc12)c1csc(N2CCOCC2)n1", "inactive"],
  ["O=C(CSc1nc2ccccc2c(=O)n1CCCO)N1CCc2ccccc21", "inactive"]
]}
